target: HLA-B*83:01; assay: IEDB peptide-MHC binding, purified MHC/competitive/fluorescence; filed as Kd, often an IC50 or EC50 that approximates it; bounds were set here for any values at or beyond the usual limits of such assays; conditions: source organism: Helicobacter pylori 26695
MEASUREMENT_KIND: pKd
One number for each entry, as −log10 of the molar value.

// returns reported pKd for input FPIQDFPII
5.56

###

target: HLA-B*57:01; assay: IEDB peptide-MHC binding, purified MHC/competitive/fluorescence; filed as Kd, often an IC50 or EC50 that approximates it; bounds were set here for any values at or beyond the usual limits of such assays; conditions: source organism: Campylobacter jejuni subsp. jejuni NCTC 11168 = ATCC 700819
MEASUREMENT_KIND: Kd

// returns reported Kd for input KGMKIQHFK
≥ 20 µM

###

target: HLA-A*02:02; test: IEDB peptide-MHC binding, purified MHC/competitive/radioactivity; filed as Kd, often an IC50 or EC50 that approximates it; bounds were set here for any values at or beyond the usual limits of such assays; settings: source organism: Mammarenavirus whitewaterense
I'd appreciate it if you could supply Kd values for the items below.
Answers are plain numbers, in nM.

- QUERY_SEQUENCE: "ALNIALIAV"
  READING_UNIT: "nM"
  Kd: 0.699

Next, consider the following sequence.
// returns reported Kd for input GLVDVCFWS
116

###

target: HLA-A*69:01; assay: IEDB peptide-MHC binding, purified MHC/direct/fluorescence; filed as Kd, often an IC50 or EC50 that approximates it; bounds were set here for any values at or beyond the usual limits of such assays; details: source organism: Haemophilus influenzae
MEASUREMENT_KIND: Kd

// returns reported Kd for input FLADYRGKT
≥ 20 µM

###

molecular target: HLA-A*02:02; assay: IEDB peptide-MHC binding, purified MHC/competitive/radioactivity; filed as Kd, often an IC50 or EC50 that approximates it; bounds were set here for any values at or beyond the usual limits of such assays; settings: source organism: Lymphocytic choriomeningitis virus (strain Armstrong)
MEASUREMENT_KIND: Kd (µM)
Answers are plain numbers, in µM.

// returns reported Kd for input SNSEDLLKAV
17.7

###

target: HLA-C*07:02; assay: IEDB peptide-MHC binding, purified MHC/direct/fluorescence; filed as Kd, often an IC50 or EC50 that approximates it; bounds were set here for any values at or beyond the usual limits of such assays; settings: source organism: Yersinia pestis Nepal516
pKd: −log10 of the molar value.
MEASUREMENT_KIND: pKd

// returns reported pKd for input FAFKLSFAI
≤ 4.70

###

biological target: HLA-A*11:01; experiment: IEDB peptide-MHC binding, purified MHC/direct/fluorescence; filed as Kd, often an IC50 or EC50 that approximates it; bounds were set here for any values at or beyond the usual limits of such assays; details: source organism: Brucella abortus
MEASUREMENT_KIND: Kd

// returns reported Kd for input LSDDSGLMV
≥ 20 µM

###

biological target: HLA-C*06:02; test: IEDB peptide-MHC binding, purified MHC/competitive/fluorescence; filed as Kd, often an IC50 or EC50 that approximates it; bounds were set here for any values at or beyond the usual limits of such assays; conditions: source organism: Zaire ebolavirus
MEASUREMENT_KIND: pKd
Numbers only, as −log10 of the molar value.

State its pKd on HLA-C*06:02: VLYHRYNLV
6.09

Provenance of the data: the Immune Epitope Database (IEDB)
